B1: OR4K15 (parent)
chain: GUUAACGGUCAUAGGCCAUGGAAACUAGGAGCACCAUUUCGCUGCCAGUGAAGAAAUGAACAAAGAAAAUCUGGGCCAGGCAGGCAUCAAAAGAAAUAGUCUUGCGCUCAACCAGAAAGUCUGUAAUCAUUUUAAGGGUA

# Variants of: B1
# TEST SUMMARY: self-cleavage, relative activity (ratio to wild type); higher = more cleavage; in vitro, sequencing; the parent is a self-cleaving ribozyme
Recorded self-cleavage by entry
REPORTED PROPERTY: self-cleavage

QUERY SEQUENCE	REPORTED PROPERTY	NUMERIC VALUE
GUUAACGGUCAUAGGCCAUGGAAACUAGGAACACCAUUUCGCUGCCAGUGAAGAAAUGAACAAAGAAAAUCUGGGCCAGGCAGGCAUCAAAGGAAAUAGUCUUGCGCUCAACCAGAAAGUCUGUAAUCAUUUUAAGGGUA [G31A A92G]	self-cleavage	1.57
GUUAACGGUCAUAGGCCAUGGAUACUAGAAGCACCAUUUCGCUGCCAGUGAAGAAAUGAACAAAGAAAAUCUGGGCCAGGCAGGCAUCAAAAGAAAUAGUCUUGCGCUCAACCAGAAAGUCUGUAAUCAUUUUAAGGGUA [A23U G29A]	self-cleavage	2.77
GUUAACGGUCAUAGGCCAUGGAAACUAGGAGCACCAUUUCGCUGCCAGUGAAGAAAUGAACAAAGAAAAUCUGGGCCAGGCAGGCAUCAAAAGGAAUAGUCUUGCGCUCAACCAGAAAGUCUGUAAUCAUUUCAAGGGUA [A94G U133C]	self-cleavage	2.11
GUUAACGGUCAUCGGCCAUGGAAACUAGGAGCACCAUUUCGCUGCCAGUGAAGAAAUGAACAAAGAAAAUCUGGGCCAUGCAGGCAUCAAAAGAAAUAGUCUUGCGCUCAACCAGAAAGUCUGUAAUCAUUUUAAGGGUA [A13C G79U]	self-cleavage	0.17
GUUAACGGUCAUAGUCCAUGGAAACUAGGAGCACCAUUUCGCUGCCAGUGAAGAAAUGAACAAAGAACAUCUGGGCCAGGCAGGCAUCAAAAGAAAUAGUCUUGCGCUCAACCAGAAAGUCUGUAAUCAUUUUAAGGGUA [G15U A68C]	self-cleavage	1.71
GUUAACGGUCAUAGGCCAUGGAAACAAGGAGCACCAUUUCGCUGCCAGUGAAGAAAUGAACAAAGAAAAUCAGGGCCAGGCAGGCAUCAAAAGAAAUAGUCUUGCGCUCAACCAGAAAGUCUGUAAUCAUUUUAAGGGUA [U26A U72A]	self-cleavage	0.28
GUUAACGGUCUUAGGCCAUGGAAACUAGGAGCACCAUUUCGCUGCCAGUGAAGAAAUGAACAAAGAAAAUCUGGGCCAGGCAGGCAUCGAAAGAAAUAGUCUUGCGCUCAACCAGAAAGUCUGUAAUCAUUUUAAGGGUA [A11U A89G]	self-cleavage	1.21
GUUAACGGUCAUAGGCCAUGGAAACUAGGAGCACCAUUUCGCUGCCAGUGAAGAAAUGAACAAAGAAAAUCUGGGCCAGGCAGGCAUCAAAAGAAAUAGUCUUGCGCUCAACCAGAAAGACUGUAACCAUUUUAAGGGUA [U120A U127C]	self-cleavage	1.67
GUUAACGGUCAUUGGCCAUGGAAACUAGGAGCACCAUUUCGCUGCCAGUGAAGAAAUGAACAAAGAAAAUCUGGGCCAGGCAGGCAUCAAAAGAAAUAGUCUUGCGCUCAACCAGAAAGUCUGUAAUCACUUUAAGGGUA [A13U U130C]	self-cleavage	0.69
GUUAACGGUCAUAGGCCAUGGAAGCUAGGAGCACCAUUUCGCUGCCAGUGAAGAAAUGAACAAAGAAAAUCUGGGCCAGGCAGGCAUCAAAAGAAAUAGUCUUGCGCUCAACCAGAAAGUCUGUAAUCAUUUAAAGGGUA [A24G U133A]	self-cleavage	1.18
GUUAACGGUCAUAGGCCAUGGAAACUAGGAGCACCAUUUCGCUGCCAGUUAAGAAAUGAACAAAGAAAAUCUGGGCCAGGCAGGCAUCAAAAGAAAUAGUCUUGCGCUCAACCAGGAAGUCUGUAAUCAUUUUAAGGGUA [G50U A116G]	self-cleavage	0.75
GUUAACGGUCAUAGGCCAUGGAAACUAGGAGCACCAUUUCGCUGUCAGUGGAGAAAUGAACAAAGAAAAUCUGGGCCAGGCAGGCAUCAAAAGAAAUAGUCUUGCGCUCAACCAGAAAGUCUGUAAUCAUUUUAAGGGUA [C45U A51G]	self-cleavage	1.58
GUUAACGGUCAUAGGCCAUGGAAACUAGGAGCACCAUUUCGCUGCCAGUGAAGAAAUGAACAAAGAAAAUCUGGGCCAGGCAGGCAUCAAAAAAAAUAGUCUUGCGCUCAACCAGAAAGUCUGUAAUCAUUUUAAGGGUA [G93A]	self-cleavage	2.17
GUUAACGGUCAUAGGCCAUGGAAACUAGAAGCACCAUUUCGCUGCCAGUGAAGAAAUGAACAAAGAAAAUCUGGGCCAGGCAGGCAACAAAAGAAAUAGUCUUGCGCUCAACCAGAAAGUCUGUAAUCAUUUUAAGGGUA [G29A U87A]	self-cleavage	1.79
GUUAACGGUCAUAGGCCAUGGAAACUAGGAGCACCAUUUAGCUGCCAGUGAAGAAAUGAACAAAGUAAAUCUGGGCCAGGCAGGCAUCAAAAGAAAUAGUCUUGCGCUCAACCAGAAAGUCUGUAAUCAUUUUAAGGGUA [C40A A66U]	self-cleavage	1.52
GUUAACGGUCAUAGGCCAUGGAAACUAGGAGCACCACUUCGCUGCCAGUGAAGAAAUGAACAAAGAAAAUCUGGGCCAGGCAGGCAUCAAAAGAAAUAGUCUUGCGCUCAACCAGAAAGUCUGUAAUCAUUUUAAGGGUG [U37C A140G]	self-cleavage	1.24
GUUAACGGUCAUAGGCCAUGGAAACUAGGAGCACCAUUUCGCUGCCAGUGAAGAAAUGAACAAAGAAAAUCUGGGCCAGGCAGGCAUCAAAAGAAAUAGUCCUGCGCUCAACCAGAAAGUCUGUAAUAAUUUUAAGGGUA [U102C C128A]	self-cleavage	2.11
GUUAACGGUCAUAGGCCAUGGAAACUAGGGGCACCAUUUCGCUGCCAGUGAAGAAAUGAACAAAGAAAAUCUGGGCCAGGCUGGCAUCAAAAGAAAUAGUCUUGCGCUCAACCAGAAAGUCUGUAAUCAUUUUAAGGGUA [A30G A82U]	self-cleavage	0.25
GUUAACGGUCAUAGGCCAUGGAAACUAGGAGCACCAUUUCGCUGCCAGUGAAGAAAUGAACAAAGAAAAUCUGGGCCAGGCAGGCAUCAAAAGAAAUAGUCCUGCGCUCAACCAGAAUGUCUGUAAUCAUUUUAAGGGUA [U102C A118U]	self-cleavage	1.08
GUUAACGGUCAUAGGCCAUGGAGACUAGGAGCACCAUUUCGCUGCCAGUGAAGAAAUGAACAAAGAAAAUCUGGGCCAGGCGGGCAUCAAAAGAAAUAGUCUUGCGCUCAACCAGAAAGUCUGUAAUCAUUUUAAGGGUA [A23G A82G]	self-cleavage	0.57
GUUAACGGUCAUAGGCCAUGGAAACUAGGAGCACCAUUUCGCUGGCAGUGGAGAAAUGAACAAAGAAAAUCUGGGCCAGGCAGGCAUCAAAAGAAAUAGUCUUGCGCUCAACCAGAAAGUCUGUAAUCAUUUUAAGGGUA [C45G A51G]	self-cleavage	1.57
GUUAACGGUCAUAGGCCAUGGAAACUAGGAGCACCAUUUCGCUGCCAGUGAAGAAAUGAACAAAGAAAACCUGGGCCAGGCAGGCAUCAAAAGAAAUAGUCAUGCGCUCAACCAGAAAGUCUGUAAUCAUUUUAAGGGUA [U70C U102A]	self-cleavage	0.33
GUUAACGGUCAUAGGCCAUGGAAACUAGGAGCACCAUUUCGCUGCCAGUGAAGAAAUGAACAAAGAAAAUCUGGGCCAGGCAGGCAUCAAAAGAAAUAGUCUUGCGCUUAACCAGAAAGUCUGUAAGCAUUUUAAGGGUA [C109U U127G]	self-cleavage	0.62
GUUAACGGUCAUAGGCCAUGGAAACUAGGAGCACCAUUACGCUGCCAGUGAAGAAAUGAACAAAGAAAAUCUGGGCCGGGCAGGCAUCAAAAGAAAUAGUCUUGCGCUCAACCAGAAAGUCUGUAAUCAUUUUAAGGGUA [U39A A78G]	self-cleavage	0.35
GUUAACGGUCAUAGGCCAUGGAAACUAGGAGCACCAUCUCGCUGCCAGUGAAGAAAUGAACAAAGAAAAUCUGGGCCAGGCAGGCACCAAAAGAAAUAGUCUUGCGCUCAACCAGAAAGUCUGUAAUCAUUUUAAGGGUA [U38C U87C]	self-cleavage	1.26
GUUAACAGUCAUAGGCCAUGGAAACUAGGAGCACCUUUUCGCUGCCAGUGAAGAAAUGAACAAAGAAAAUCUGGGCCAGGCAGGCAUCAAAAGAAAUAGUCUUGCGCUCAACCAGAAAGUCUGUAAUCAUUUUAAGGGUA [G7A A36U]	self-cleavage	1.54

Data provenance: the RNAGym collection of RNA variant scans (doi:10.7554/elife.90254)
